tested on: MCF-7 (breast adenocarcinoma); assay: MTT cell proliferation assay, MCF-7; assay type: cell-based; conditions: Homo sapiens, MCF7, MCF-7, 72 h of exposition, read-out: Anti-proliferative activity IC50, MCF-7
recordedMetric: IC50 (µM)

Here's what some known entries look like.
Cc1cn(-c2cc(NC(=O)c3ccc(C(=O)N4CCN(C(=O)c5ccccc5F)CC4)cc3)cc(C(F)(F)F)c2)cn1 [Compound 26]; 48.8
CNC(=O)c1cc(Oc2ccc(NC(=O)c3cccc(C(=O)Nc4cccc(C(F)(F)F)c4)c3)cc2)ccn1 [Compound 6]; 41.1
Cc1cn(-c2cc(NC(=O)c3ccc(C)c(Nc4nccc(-c5cccnc5)n4)c3)cc(C(F)(F)F)c2)cn1 [Nilotinib, reference compound]; 4.2

(a) CS(=O)(=O)CCNCc1ccc(-c2ccc3ncnc(Nc4ccc(OCc5cccc(F)c5)c(Cl)c4)c3c2)o1 [Lapatinib, reference compound]
(b) Cc1cn(-c2cc(NC(=O)c3cccc(C(=O)N4CCN(C(=O)c5ccccc5F)CC4)c3)cc(C(F)(F)F)c2)cn1 [Compound 14]
Q) Hi team, can someone confirm which has the larger IC50: a or b ? Thanks. Identify your pick by its label.
A) b
(b: 27.3 µM, a: 10.9 µM)

---

molecular target: HER4 (Homo sapiens, UniProt Q15303); construct: purchased Promega; assay: ADP-Glo kinase assay, HER4; type: biochemical
Sequence (Q15303 26-1308): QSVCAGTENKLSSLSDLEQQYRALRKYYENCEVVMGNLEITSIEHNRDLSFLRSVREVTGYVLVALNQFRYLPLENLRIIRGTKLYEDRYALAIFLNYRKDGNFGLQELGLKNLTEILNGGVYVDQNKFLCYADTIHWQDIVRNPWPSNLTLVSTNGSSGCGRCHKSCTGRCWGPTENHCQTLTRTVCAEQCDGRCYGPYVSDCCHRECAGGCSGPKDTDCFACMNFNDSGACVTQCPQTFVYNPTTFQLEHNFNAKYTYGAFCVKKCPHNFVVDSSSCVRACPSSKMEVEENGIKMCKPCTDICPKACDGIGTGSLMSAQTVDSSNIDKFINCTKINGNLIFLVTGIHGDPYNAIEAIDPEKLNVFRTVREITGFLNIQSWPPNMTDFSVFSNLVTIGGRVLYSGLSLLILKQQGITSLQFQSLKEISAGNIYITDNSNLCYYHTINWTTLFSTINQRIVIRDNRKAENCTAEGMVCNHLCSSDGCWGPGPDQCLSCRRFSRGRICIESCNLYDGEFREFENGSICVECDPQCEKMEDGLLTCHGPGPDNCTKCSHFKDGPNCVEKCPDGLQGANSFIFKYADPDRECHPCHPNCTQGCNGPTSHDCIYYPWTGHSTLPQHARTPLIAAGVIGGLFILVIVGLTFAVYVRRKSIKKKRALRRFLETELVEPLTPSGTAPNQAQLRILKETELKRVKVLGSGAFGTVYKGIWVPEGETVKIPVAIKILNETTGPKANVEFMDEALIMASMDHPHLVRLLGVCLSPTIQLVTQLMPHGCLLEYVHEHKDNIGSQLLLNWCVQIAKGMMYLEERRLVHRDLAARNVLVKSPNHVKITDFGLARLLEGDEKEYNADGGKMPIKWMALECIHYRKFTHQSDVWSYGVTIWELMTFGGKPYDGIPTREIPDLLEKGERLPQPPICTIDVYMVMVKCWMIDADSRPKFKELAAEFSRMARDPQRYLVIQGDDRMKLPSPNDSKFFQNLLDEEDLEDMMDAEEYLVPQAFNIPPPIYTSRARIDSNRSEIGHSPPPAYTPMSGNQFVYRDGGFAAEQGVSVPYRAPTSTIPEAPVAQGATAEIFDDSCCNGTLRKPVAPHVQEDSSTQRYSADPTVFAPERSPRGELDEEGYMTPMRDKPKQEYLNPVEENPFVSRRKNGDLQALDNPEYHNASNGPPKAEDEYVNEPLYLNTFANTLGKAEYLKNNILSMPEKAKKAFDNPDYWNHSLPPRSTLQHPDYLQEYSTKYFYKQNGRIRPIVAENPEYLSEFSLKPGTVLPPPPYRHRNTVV
recordedMetric: inhibition at 10 µM (%)

Here's what some known entries look like.
COc1ccc(C(=O)N2CCN(C(=O)c3ccc(C(=O)Nc4cccc(C(F)(F)F)c4)cc3)CC2)cc1; 2
O=C(Nc1cccc(C(F)(F)F)c1)c1cccc(C(=O)N2CCN(C(=O)c3ccccc3F)CC2)c1; 0
CS(=O)(=O)CCNCc1ccc(-c2ccc3ncnc(Nc4ccc(OCc5cccc(F)c5)c(Cl)c4)c3c2)o1 [Lapatinib, reference compound]; 100

(P) Cc1cn(-c2cc(NC(=O)c3cccc(C(=O)Nc4cc(-n5cnc(C)c5)cc(C(F)(F)F)c4)c3)cc(C(F)(F)F)c2)cn1
(Q) O=C(Nc1cccc(C(F)(F)F)c1)c1cccc(C(=O)N2CCN(C(=O)c3cccc(F)c3)CC2)c1
Q) When the recorded inhibition at 10 µM values are compared, which is smaller: that of P or that of Q ? Identify your pick by its label.
A) P

---

tested on: HL-60 (promyelocytic leukemia); test: MTT cell proliferation assay, HL-60; assay type: cell-based; conditions: Homo sapiens, HL-60, 72 h of exposition, read-out: Anti-proliferative activity IC50, HL-60
pIC50: −log10 of the molar value.
recordedMetric: pIC50

Cc1cn(-c2cc(NC(=O)c3cccc(C(=O)N4CCN(C(=O)c5ccccc5F)CC4)c3)cc(C(F)(F)F)c2)cn1 [Compound 14]; 4.49

(P) Cc1cn(-c2cc(NC(=O)c3cccc(C(=O)N4CCN(C(=O)c5cccc(F)c5)CC4)c3)cc(C(F)(F)F)c2)cn1 [Compound 15]
(Q) Cc1cn(-c2cc(NC(=O)c3cccc(C(=O)Nc4cccc(C(F)(F)F)c4)c3)cc(C(F)(F)F)c2)cn1 [Compound 5]
Q) Hi team, can someone confirm which has the larger pIC50: P or Q ? Thanks. Identify your pick by its label.
A) Q

---

test system: K562 cells; assay: Cell cycle analysis (propidium iodide, flow cytometry); assay type: cell-based; conditions: K562, 1 µM, 48 h
recordedMetric: G2/M, % (%)
Provide the reading as a plain figure in %.

Cc1cn(-c2cc(NC(=O)c3cccc(C(=O)N4CCN(C(=O)c5ccccc5F)CC4)c3)cc(C(F)(F)F)c2)cn1; 46.95
Cc1cn(-c2cc(NC(=O)c3cccc(C(=O)Nc4cccc(C(F)(F)F)c4)c3)cc(C(F)(F)F)c2)cn1; 45.08
CS(=O)(=O)CCNCc1ccc(-c2ccc3ncnc(Nc4ccc(OCc5cccc(F)c5)c(Cl)c4)c3c2)o1 [Lapatinib, reference compound]; 52.23

Okay, next one:
Q) // G2/M, % lookup, key: Cc1cn(-c2cc(NC(=O)c3cccc(C(=O)N4CCN(C(=O)c5cccc(F)c5)CC4)c3)cc(C(F)(F)F)c2)cn1
A) 48.54

---

target: InsR (insulin receptor) (Homo sapiens); construct: purchased Promega; test: ADP-Glo kinase assay, InsR; assay type: biochemical
Sequence (P06213 28-1382): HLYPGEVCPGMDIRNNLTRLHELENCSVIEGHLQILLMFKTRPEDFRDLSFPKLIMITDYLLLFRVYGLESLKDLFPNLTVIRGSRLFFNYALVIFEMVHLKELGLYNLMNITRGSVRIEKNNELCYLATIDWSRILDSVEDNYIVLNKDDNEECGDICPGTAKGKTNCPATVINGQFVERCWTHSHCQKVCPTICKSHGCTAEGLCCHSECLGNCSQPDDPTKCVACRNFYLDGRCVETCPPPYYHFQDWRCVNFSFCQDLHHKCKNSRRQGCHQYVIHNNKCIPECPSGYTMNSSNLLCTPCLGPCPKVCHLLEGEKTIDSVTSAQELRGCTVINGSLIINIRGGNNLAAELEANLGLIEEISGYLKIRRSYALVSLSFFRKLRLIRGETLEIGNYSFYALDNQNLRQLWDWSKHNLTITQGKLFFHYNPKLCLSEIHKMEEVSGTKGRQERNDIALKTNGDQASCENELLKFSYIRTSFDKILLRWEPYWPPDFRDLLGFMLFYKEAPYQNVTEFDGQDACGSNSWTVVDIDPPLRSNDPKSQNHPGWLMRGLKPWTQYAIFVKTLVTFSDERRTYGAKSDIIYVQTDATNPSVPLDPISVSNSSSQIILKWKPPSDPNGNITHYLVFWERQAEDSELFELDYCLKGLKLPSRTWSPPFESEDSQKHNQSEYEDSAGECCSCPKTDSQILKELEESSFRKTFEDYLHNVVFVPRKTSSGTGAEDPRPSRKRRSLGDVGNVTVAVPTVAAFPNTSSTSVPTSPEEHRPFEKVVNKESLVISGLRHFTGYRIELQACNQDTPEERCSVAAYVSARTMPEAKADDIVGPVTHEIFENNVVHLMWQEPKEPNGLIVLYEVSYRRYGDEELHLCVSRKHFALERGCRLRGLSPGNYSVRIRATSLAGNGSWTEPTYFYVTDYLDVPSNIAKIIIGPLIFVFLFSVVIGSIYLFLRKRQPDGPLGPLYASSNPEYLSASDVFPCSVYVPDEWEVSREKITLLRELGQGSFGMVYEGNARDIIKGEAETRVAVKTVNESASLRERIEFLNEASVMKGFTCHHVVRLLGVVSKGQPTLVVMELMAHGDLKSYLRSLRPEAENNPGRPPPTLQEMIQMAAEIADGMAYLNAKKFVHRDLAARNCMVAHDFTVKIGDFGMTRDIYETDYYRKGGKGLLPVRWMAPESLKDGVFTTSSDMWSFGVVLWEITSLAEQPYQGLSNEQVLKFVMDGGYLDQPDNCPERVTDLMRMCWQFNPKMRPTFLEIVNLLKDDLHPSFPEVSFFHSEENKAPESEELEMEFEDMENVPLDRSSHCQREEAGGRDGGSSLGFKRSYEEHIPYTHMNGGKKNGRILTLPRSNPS
recordedMetric: inhibition at 10 µM (%)

Here's what some known entries look like.
CS(=O)(=O)CCNCc1ccc(-c2ccc3ncnc(Nc4ccc(OCc5cccc(F)c5)c(Cl)c4)c3c2)o1 [Lapatinib, reference compound]; 0
Cc1cn(-c2cc(NC(=O)c3ccc(C(=O)Nc4cccc(C(F)(F)F)c4)cc3)cc(C(F)(F)F)c2)cn1 [Compound 17]; 0
Cc1cn(-c2cc(NC(=O)c3cccc(C(=O)Nc4cccc(C(F)(F)F)c4)c3)cc(C(F)(F)F)c2)cn1 [Compound 5]; 0
Cc1cn(-c2cc(NC(=O)c3ccc(C(=O)Nc4cc([N+](=O)[O-])ccc4C)cc3)cc(C(F)(F)F)c2)cn1 [Compound 24]; 0
Cc1cn(-c2cc(NC(=O)c3cccc(C(=O)N4CCN(C(=O)c5ccccc5F)CC4)c3)cc(C(F)(F)F)c2)cn1 [Compound 14]; 0
O=C(Nc1cccc(C(F)(F)F)c1)c1cccc(C(=O)N2CCN(C(=O)c3cccc(F)c3)CC2)c1 [Compound 9]; 0

(1) Cc1cn(-c2cc(NC(=O)c3cccc(C(=O)Nc4cc(-n5cnc(C)c5)cc(C(F)(F)F)c4)c3)cc(C(F)(F)F)c2)cn1 [Compound 10]
(2) COc1ccc(C(=O)N2CCN(C(=O)c3ccc(C(=O)Nc4cccc(C(F)(F)F)c4)cc3)CC2)cc1 [Compound 19]
(3) O=C(Nc1cccc(C(F)(F)F)c1)c1cccc(C(=O)N2CCN(C(=O)c3ccccc3F)CC2)c1 [Compound 8]
Q) hey, can you rank those compounds up there by inhibition at 10 µM? biggest number first please Output spec: labels arranged per the requested ranking.
A) 2, 3, 1
(2: 17%, 3: 6%, 1: 0%)

---

test system: K562 (chronic myelogenous leukemia); assay: MTT cell proliferation assay, K562; assay type: cell-based; conditions: Homo sapiens, K562, 72 h of exposition, read-out: Anti-proliferative activity IC50, K562
recordedMetric: IC50 (µM)

(P) Cc1cn(-c2cc(NC(=O)c3cccc(C(=O)Nc4cccc(C(F)(F)F)c4)c3)cc(C(F)(F)F)c2)cn1 [Compound 5]
(Q) Cc1cn(-c2cc(NC(=O)c3ccc(C(=O)N4CCN(C(=O)c5ccccc5F)CC4)cc3)cc(C(F)(F)F)c2)cn1 [Compound 26]
Q) When the recorded IC50 values are compared, which is smaller: that of P or that of Q ? Identify your pick by its label.
A) P

---

biological target: PDGFRα (Homo sapiens, UniProt P16234); construct: purchased Promega; test: ADP-Glo kinase assay, PDGFRα; assay type: biochemical
Sequence (P16234 24-1089): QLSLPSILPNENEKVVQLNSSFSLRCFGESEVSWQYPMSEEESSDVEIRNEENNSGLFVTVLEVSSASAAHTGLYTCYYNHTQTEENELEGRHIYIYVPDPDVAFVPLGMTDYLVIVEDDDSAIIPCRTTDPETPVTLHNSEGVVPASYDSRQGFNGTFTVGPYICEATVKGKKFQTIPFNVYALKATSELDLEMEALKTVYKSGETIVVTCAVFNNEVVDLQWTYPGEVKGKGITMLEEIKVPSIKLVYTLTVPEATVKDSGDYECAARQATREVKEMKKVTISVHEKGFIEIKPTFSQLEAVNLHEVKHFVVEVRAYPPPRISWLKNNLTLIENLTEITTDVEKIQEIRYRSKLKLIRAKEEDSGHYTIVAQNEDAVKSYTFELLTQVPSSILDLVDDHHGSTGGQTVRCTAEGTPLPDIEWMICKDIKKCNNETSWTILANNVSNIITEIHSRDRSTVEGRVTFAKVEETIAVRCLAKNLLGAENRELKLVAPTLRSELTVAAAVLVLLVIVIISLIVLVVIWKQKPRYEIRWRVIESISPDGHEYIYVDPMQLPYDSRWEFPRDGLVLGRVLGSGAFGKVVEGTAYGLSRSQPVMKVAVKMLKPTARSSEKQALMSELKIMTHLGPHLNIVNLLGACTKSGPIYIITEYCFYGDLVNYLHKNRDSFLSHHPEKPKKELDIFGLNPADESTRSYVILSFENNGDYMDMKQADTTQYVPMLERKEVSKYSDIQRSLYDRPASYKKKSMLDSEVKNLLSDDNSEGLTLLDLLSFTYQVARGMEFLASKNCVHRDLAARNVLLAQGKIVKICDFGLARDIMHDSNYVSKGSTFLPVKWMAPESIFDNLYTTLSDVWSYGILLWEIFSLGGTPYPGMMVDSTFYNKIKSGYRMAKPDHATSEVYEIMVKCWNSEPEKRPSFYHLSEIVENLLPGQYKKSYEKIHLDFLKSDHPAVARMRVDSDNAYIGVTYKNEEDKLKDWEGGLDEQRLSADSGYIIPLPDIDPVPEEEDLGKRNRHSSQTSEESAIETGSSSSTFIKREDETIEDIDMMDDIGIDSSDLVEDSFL
recordedMetric: inhibition at 10 µM (%)

Here's what some known entries look like.
COc1ccc(C(=O)N2CCN(C(=O)c3ccc(C(=O)Nc4cccc(C(F)(F)F)c4)cc3)CC2)cc1 [Compound 19]; 19
Cc1cn(-c2cc(NC(=O)c3ccc(C(=O)Nc4cc([N+](=O)[O-])ccc4C)cc3)cc(C(F)(F)F)c2)cn1 [Compound 24]; 0
Cc1cn(-c2cc(NC(=O)c3cccc(C(=O)Nc4cccc(C(F)(F)F)c4)c3)cc(C(F)(F)F)c2)cn1 [Compound 5]; 73
Cc1cn(-c2cc(NC(=O)c3cccc(C(=O)N4CCN(C(=O)c5ccccc5F)CC4)c3)cc(C(F)(F)F)c2)cn1 [Compound 14]; 24
CNC(=O)c1cc(Oc2ccc(NC(=O)Nc3ccc(Cl)c(C(F)(F)F)c3)cc2)ccn1 [Sorafenib, reference compound]; 100

(1) O=C(Nc1cccc(C(F)(F)F)c1)c1cccc(C(=O)N2CCN(C(=O)c3cccc(F)c3)CC2)c1 [Compound 9]
(2) O=C(Nc1cccc(C(F)(F)F)c1)c1cccc(C(=O)N2CCN(C(=O)c3ccccc3F)CC2)c1 [Compound 8]
Q) When the recorded inhibition at 10 µM values are compared, which is smaller: that of 1 or that of 2 ? Identify your pick by its label.
A) 2
(2: 0%, 1: 20%)

(A) CS(=O)(=O)CCNCc1ccc(-c2ccc3ncnc(Nc4ccc(OCc5cccc(F)c5)c(Cl)c4)c3c2)o1 [Lapatinib, reference compound]
(B) Cc1cn(-c2cc(NC(=O)c3cccc(C(=O)Nc4cc(-n5cnc(C)c5)cc(C(F)(F)F)c4)c3)cc(C(F)(F)F)c2)cn1 [Compound 10]
Q) Hi team, can someone confirm which has the larger inhibition at 10 µM: A or B ? Thanks. Identify your pick by its label.
A) B
(B: 17%, A: 2%)

---

# maps each entry to its Apoptosis, % (cell cycle analysis)
system: K562 cells; assay: Cell cycle analysis (propidium iodide, flow cytometry); format: cell-based; conditions: K562, 1 µM, 48 h
Provide the reading as a plain figure in %.

Cc1cn(-c2cc(NC(=O)c3cccc(C(=O)N4CCN(C(=O)c5cccc(F)c5)CC4)c3)cc(C(F)(F)F)c2)cn1; 17.90
CNC(=O)c1cc(Oc2ccc(NC(=O)Nc3ccc(Cl)c(C(F)(F)F)c3)cc2)ccn1 [Sorafenib, reference compound]; 22.60
Cc1cn(-c2cc(NC(=O)c3cccc(C(=O)Nc4cccc(C(F)(F)F)c4)c3)cc(C(F)(F)F)c2)cn1; 14.56
Cc1cn(-c2cc(NC(=O)c3cccc(C(=O)N4CCN(C(=O)c5ccccc5F)CC4)c3)cc(C(F)(F)F)c2)cn1; 14.28

Okay, next one:
Q) // Apoptosis, % (cell cycle analysis) lookup, key: CS(=O)(=O)CCNCc1ccc(-c2ccc3ncnc(Nc4ccc(OCc5cccc(F)c5)c(Cl)c4)c3c2)o1 [Lapatinib, reference compound]
A) 14.74
